For each record, write down the corresponding IC50.
# target-desc: UniProtKB Q92794
# measurement-notes: KAT-6A biochemical inhibition assay (SAMDI mass spectrometry)

Asked: Consider the compound Cn1cnc(-c2cc(Cl)c(F)c(C(=O)NNS(=O)(=O)C[C@H]3CC[C@H](N(C)CC(F)(F)F)CC3)c2)c1 and give its recorded IC50.
Given back: < 10 µM

Asked: Consider the compound Cc1cc(-c2cn(C)cn2)cc(C(=O)NNS(=O)(=O)CC2CCCCC2)c1C and give its recorded IC50.
Given back: > 100 µM

Asked: Consider the compound COc1ccc(S(=O)(=O)NNC(=O)c2cc(-c3cn(C)cn3)cc(Cl)c2F)c(Cl)c1 and give its recorded IC50.
Given back: 10 to 50 µM

Asked: Consider the compound Cn1cnc(-c2cc(Cl)c(F)c(C(=O)NNS(=O)(=O)c3cccc(F)c3)c2)c1 and give its recorded IC50.
Given back: < 10 µM

* * *

For each record, write down the corresponding pIC50.
# target-desc: KAT-6A (Homo sapiens (Human))
# measurement-notes: KAT-6A biochemical inhibition assay (SAMDI mass spectrometry)
pIC50: −log10 of the molar value.

Asked: Consider the molecule Cn1cnc(-c2cc(Cl)c(F)c(C(=O)NNS(=O)(=O)c3cncs3)c2)c1 and give its recorded pIC50.
Given back: 4.30 to 5.00

Asked: Consider the molecule CNCCOc1ccc(S(=O)(=O)NNC(=O)c2cc(-c3cn(C)cn3)cc(Cl)c2F)cc1 and give its recorded pIC50.
Given back: < 4.00

Asked: Consider the molecule Cn1cnc(-c2cc(Cl)c(F)c(C(=O)NNS(=O)(=O)C[C@H]3CCN(C(=O)OC(C)(C)C)C3)c2)c1 and give its recorded pIC50.
Given back: 4.30 to 5.00

Asked: Consider the molecule COc1cccc(S(=O)(=O)NNC(=O)c2cc(-c3cn(C)cn3)cc(Cl)c2F)c1 and give its recorded pIC50.
Given back: > 5.00

Asked: Consider the molecule CN(C)C(=O)N[C@H]1CC[C@@H](CS(=O)(=O)NNC(=O)c2cc(-c3cn(C)cn3)cc(Cl)c2F)CC1 and give its recorded pIC50.
Given back: > 5.00

Asked: Consider the molecule CN(C(=O)C1CCC1)C1CCCC(CS(=O)(=O)NNC(=O)c2cc(-c3cn(C)cn3)cc(Cl)c2F)C1 (stereo not drawn) and give its recorded pIC50.
Given back: > 5.00

Asked: Consider the molecule CCC1CC(CS(=O)(=O)NNC(=O)c2cc(-c3cn(C)cn3)cc(Cl)c2F)CC1=O (stereo not drawn) and give its recorded pIC50.
Given back: 4.30 to 5.00

Asked: Consider the molecule CNc1ccccc1S(=O)(=O)NNC(=O)c1cc(-c2cn(C)cn2)cc(Cl)c1F and give its recorded pIC50.
Given back: > 5.00

Asked: Consider the molecule COc1ccc(CNC(=O)N2CCCC(CS(=O)(=O)NNC(=O)c3cc(-c4cn(C)cn4)cc(Cl)c3F)C2)cc1 (stereo not drawn) and give its recorded pIC50.
Given back: > 5.00

Asked: Consider the molecule CCNC(=O)NC1CCCC(CS(=O)(=O)NNC(=O)c2cc(-c3cn(C)cn3)cc(Cl)c2F)C1 (stereo not drawn) and give its recorded pIC50.
Given back: > 5.00

Asked: Consider the molecule CCNC(=O)N[C@H]1C[C@H](CS(=O)(=O)NNC(=O)c2cc(-c3cn(C)cn3)cc(Cl)c2F)C1 and give its recorded pIC50.
Given back: 4.30 to 5.00

Asked: Consider the molecule COc1cc(F)c(S(=O)(=O)NNC(=O)c2cc(-c3cn(C)cn3)cc(Cl)c2F)cc1O and give its recorded pIC50.
Given back: > 5.00

Asked: Consider the molecule Cn1cnc(-c2cc(Cl)c(F)c(C(=O)NNS(=O)(=O)CC3CC3)c2)c1 and give its recorded pIC50.
Given back: 4.30 to 5.00

Asked: Consider the molecule Cc1nc(-c2cc(Cl)c(F)c(C(=O)NNS(=O)(=O)CC3CCOCC3)c2)cs1 and give its recorded pIC50.
Given back: 4.30 to 5.00

Asked: Consider the molecule Cn1cnc(-c2cc(Cl)c(F)c(C(=O)NNS(=O)(=O)c3cccc(OCc4ccccc4)n3)c2)c1 and give its recorded pIC50.
Given back: > 5.00

* * *

# target-desc: UniProt:Q92794
# measurement-notes: KAT-6A biochemical inhibition assay (SAMDI mass spectrometry)
For each record, write down the corresponding IC50.

Asked: Consider the molecule Cn1cnc(-c2cc(Cl)c(F)c(C(=O)NNS(=O)(=O)CC3CCCC(NC(=O)c4ccccn4)C3)c2)c1 (stereo not shown) and give its recorded IC50.
Given back: < 10 µM

Asked: Consider the molecule COC1CCC(CS(=O)(=O)NNC(=O)c2cc(-c3cn(C)cn3)cc(Cl)c2F)CC1 (stereo not shown) and give its recorded IC50.
Given back: < 10 µM

Asked: Consider the molecule CN[C@H]1CC[C@H](CS(=O)(=O)NNC(=O)c2cc(-c3cn(C)cn3)cc(Cl)c2F)CC1 and give its recorded IC50.
Given back: 10 to 50 µM

Asked: Consider the molecule Cn1cnc(-c2cc(Cl)c(F)c(C(=O)NNS(=O)(=O)CC3CCCN(S(=O)(=O)C4CC4)C3)c2)c1 (stereo not shown) and give its recorded IC50.
Given back: < 10 µM

Asked: Consider the molecule CCNC(=O)N(C)C1CCCC(CS(=O)(=O)NNC(=O)c2cc(-c3cn(C)cn3)cc(Cl)c2F)C1 (stereo not shown) and give its recorded IC50.
Given back: < 10 µM

Asked: Consider the molecule COCCn1cnc(-c2cc(C)c(F)c(C(=O)NNS(=O)(=O)CC3CCOCC3)c2)c1 and give its recorded IC50.
Given back: 10 to 50 µM

Asked: Consider the molecule COCCOc1ccc(S(=O)(=O)NNC(=O)c2cc(-c3cn(C)cn3)cc(Cl)c2F)c(F)c1 and give its recorded IC50.
Given back: < 10 µM

* * *

For each record, write down the corresponding pIC50.
# target-desc: KAT-7 (Homo sapiens (Human), UniProt O95251)
# Sequence (O95251 other isoform, or with tags, fused parts or gaps): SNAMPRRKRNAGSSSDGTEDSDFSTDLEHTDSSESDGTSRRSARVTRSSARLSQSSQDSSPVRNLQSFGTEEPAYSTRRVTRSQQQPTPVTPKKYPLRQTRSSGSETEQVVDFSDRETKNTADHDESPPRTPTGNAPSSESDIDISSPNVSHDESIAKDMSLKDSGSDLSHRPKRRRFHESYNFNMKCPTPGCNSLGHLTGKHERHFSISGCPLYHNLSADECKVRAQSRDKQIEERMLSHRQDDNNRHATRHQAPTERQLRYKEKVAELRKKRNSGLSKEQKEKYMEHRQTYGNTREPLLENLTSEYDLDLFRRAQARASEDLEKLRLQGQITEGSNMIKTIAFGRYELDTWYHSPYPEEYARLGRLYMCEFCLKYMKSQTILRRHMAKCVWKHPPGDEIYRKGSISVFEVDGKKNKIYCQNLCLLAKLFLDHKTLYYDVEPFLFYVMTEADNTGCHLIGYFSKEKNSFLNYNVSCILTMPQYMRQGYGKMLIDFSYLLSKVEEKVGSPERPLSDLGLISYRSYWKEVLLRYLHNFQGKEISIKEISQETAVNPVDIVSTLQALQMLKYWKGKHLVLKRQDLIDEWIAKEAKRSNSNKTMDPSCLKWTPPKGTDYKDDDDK
# measurement-notes: KAT-7 biochemical inhibition assay (SAMDI mass spectrometry)
pIC50: −log10 of the molar value.

Asked: Consider the molecule COc1ccc(CN(C)C(=O)N2CCCC(CS(=O)(=O)NNC(=O)c3cc(-c4cn(C)cn4)cc(Cl)c3F)C2)cc1 (stereo not shown) and give its recorded pIC50.
Given back: > 5.00

Asked: Consider the molecule Cn1cnc(-c2cc(Cl)c(F)c(C(=O)NNS(=O)(=O)c3nccs3)c2)c1 and give its recorded pIC50.
Given back: > 5.00

Asked: Consider the molecule CN(C)C(=O)N1CCC(CS(=O)(=O)NNC(=O)c2cc(-c3cn(C)cn3)cc(Cl)c2F)C1 (stereo not shown) and give its recorded pIC50.
Given back: > 5.00

Asked: Consider the molecule Cc1nn(C)c(C)c1-c1cc(Cl)c(F)c(C(=O)NNS(=O)(=O)CC2CCOCC2)c1 and give its recorded pIC50.
Given back: < 4.00

* * *

# target-desc: KAT-6A (Homo sapiens (Human), UniProt Q92794)
# Sequence (Q92794 other isoform, or with tags, fused parts or gaps): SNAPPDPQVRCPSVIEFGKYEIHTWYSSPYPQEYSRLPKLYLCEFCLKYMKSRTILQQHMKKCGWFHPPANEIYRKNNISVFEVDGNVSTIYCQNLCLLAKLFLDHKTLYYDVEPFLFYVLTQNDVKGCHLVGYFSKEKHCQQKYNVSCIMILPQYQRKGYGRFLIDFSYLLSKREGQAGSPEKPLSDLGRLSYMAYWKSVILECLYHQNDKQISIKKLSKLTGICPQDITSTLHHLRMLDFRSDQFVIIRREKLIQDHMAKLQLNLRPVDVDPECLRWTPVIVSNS
# measurement-notes: KAT-6A biochemical inhibition assay (SAMDI mass spectrometry)
parameter-measured: IC50

Asked: Consider the compound Cn1cnc(-c2cc(Cl)c(F)c(C(=O)NNS(=O)(=O)CC34CC5CC(CC(C5)C3)C4)c2)c1 [Compound I-275] and give its recorded IC50.
Given back: < 10 µM

Asked: Consider the compound COCCc1c(-c2cc(Cl)c(F)c(C(=O)NNS(=O)(=O)CC3CCOCC3)c2)cnn1C [Compound I-373] and give its recorded IC50.
Given back: 10 to 50 µM

Asked: Consider the compound Cn1cnc(-c2cc(Cl)c(F)c(C(=O)NNS(=O)(=O)C3CCN(CC(F)(F)F)C3)c2)c1 (stereo not drawn) [Compound I-452] and give its recorded IC50.
Given back: 10 to 50 µM

Asked: Consider the compound Cn1cnc(-c2cc(Cl)c(F)c(C(=O)NNS(=O)(=O)c3ccccc3Cl)c2)c1 [Compound I-309] and give its recorded IC50.
Given back: < 10 µM

Asked: Consider the compound Cn1cnc(-c2cc(Cl)c(F)c(C(=O)NNS(=O)(=O)c3ccccn3)c2)c1 [Compound I-330] and give its recorded IC50.
Given back: < 10 µM

Asked: Consider the compound CN(C)C(=O)N(C)[C@H]1CC[C@@H](CS(=O)(=O)NNC(=O)c2cc(-c3cn(C)cn3)cc(Cl)c2F)CC1 [Compound I-365] and give its recorded IC50.
Given back: < 10 µM

Asked: Consider the compound Cn1cnc(-c2cc(Cl)c(F)c(C(=O)NNS(=O)(=O)c3cn(C)cn3)c2)c1 [Compound I-237] and give its recorded IC50.
Given back: < 10 µM

Asked: Consider the compound CN(C)C(=O)N(C)C1CCCC(CS(=O)(=O)NNC(=O)c2cc(-c3cn(C)cn3)cc(Cl)c2F)C1 (stereo not drawn) [Compound I-292] and give its recorded IC50.
Given back: < 10 µM

Asked: Consider the compound CCNC(=O)N[C@H]1CC[C@H](CS(=O)(=O)NNC(=O)c2cc(-c3cn(C)cn3)cc(Cl)c2F)CC1 [Compound I-109] and give its recorded IC50.
Given back: < 10 µM

Asked: Consider the compound CCn1cc(-c2cc(Cl)c(F)c(C(=O)NNS(=O)(=O)C3CCCCC3)c2)nc1C [Compound I-46] and give its recorded IC50.
Given back: 50 to 100 µM

Asked: Consider the compound Cn1cnc(-c2cc(Cl)c(F)c(C(=O)NNS(=O)(=O)c3cccc(Cl)c3)c2)c1 [Compound I-324] and give its recorded IC50.
Given back: < 10 µM

Asked: Consider the compound C[C@@H]1CNC[C@H]1CS(=O)(=O)NNC(=O)c1cc(-c2cn(C)cn2)cc(Cl)c1F [Compound I-263] and give its recorded IC50.
Given back: 10 to 50 µM

Asked: Consider the compound Cn1cnc(-c2cc(Cl)c(F)c(C(=O)NNS(=O)(=O)Cc3c(Cl)cnn3C)c2)c1 [Compound I-477] and give its recorded IC50.
Given back: 10 to 50 µM

Asked: Consider the compound CCNC(=O)N1[C@H]2CC[C@@H](CS(=O)(=O)NNC(=O)c3cc(-c4cn(C)cn4)cc(Cl)c3F)[C@@H]1CC2 [Compound I-260] and give its recorded IC50.
Given back: < 10 µM

Asked: Consider the compound Cn1cnc(-c2cc(Cl)c(F)c(C(=O)NNS(=O)(=O)c3cnn(CCOCc4ccccc4)c3)c2)c1 [Compound I-361] and give its recorded IC50.
Given back: 10 to 50 µM

Asked: Consider the compound Cn1cnc(-c2cc(Cl)c(F)c(C(=O)NNS(=O)(=O)C3COC3)c2)c1 [Compound I-42] and give its recorded IC50.
Given back: > 100 µM

Asked: Consider the compound Cn1cnc(-c2cc(Cl)c(F)c(C(=O)NNS(=O)(=O)CC3CCCN(CC(F)(F)F)C3)c2)c1 (stereo not drawn) [Compound I-437] and give its recorded IC50.
Given back: 10 to 50 µM

Asked: Consider the compound O=C(NNS(=O)(=O)CC1CCOCC1)c1cc(-n2ccnc2)cc(Cl)c1F [Compound I-47] and give its recorded IC50.
Given back: 50 to 100 µM

Asked: Consider the compound COc1ccc(S(=O)(=O)NNC(=O)c2cc(-c3cn(C)cn3)cc(Cl)c2F)c(F)c1O [Compound I-465] and give its recorded IC50.
Given back: < 10 µM

Asked: Consider the compound O=C(NNS(=O)(=O)CC1CCOCC1)c1cc(-c2cscn2)cc(Cl)c1F [Compound I-48] and give its recorded IC50.
Given back: < 10 µM

Asked: Consider the compound Cn1cnc(-c2cc(Cl)c(F)c(C(=O)NNS(=O)(=O)C[C@H]3CC[C@H](NCC(F)(F)F)CC3)c2)c1 [Compound I-466] and give its recorded IC50.
Given back: < 10 µM

Asked: Consider the compound Cn1cnc(-c2cc(Cl)c(F)c(C(=O)NNS(=O)(=O)C3CCC3)c2)c1 [Compound I-12] and give its recorded IC50.
Given back: 50 to 100 µM

Asked: Consider the compound CCn1cc(S(=O)(=O)NNC(=O)c2cc(-c3cn(C)cn3)cc(Cl)c2F)cn1 [Compound I-52] and give its recorded IC50.
Given back: 10 to 50 µM

Asked: Consider the compound Cn1cnc(-c2cc(Cl)c(F)c(C(=O)NNS(=O)(=O)C3CCN(CC(F)(F)F)CC3)c2)c1 [Compound I-445] and give its recorded IC50.
Given back: 10 to 50 µM

Asked: Consider the compound Cc1cc(-c2cn(C(C)C)cn2)cc(C(=O)NNS(=O)(=O)C2CCCCC2)c1F [Compound I-139] and give its recorded IC50.
Given back: > 100 µM

Asked: Consider the compound CC(C)S(=O)(=O)N1CC(CS(=O)(=O)NNC(=O)c2cc(-c3cn(C)cn3)cc(Cl)c2F)C1 [Compound I-193] and give its recorded IC50.
Given back: < 10 µM

Asked: Consider the compound CNC(=O)Cn1nc(-c2cc(Cl)c(F)c(C(=O)NNS(=O)(=O)CC3CCCCC3)c2)cc1C [Compound I-311] and give its recorded IC50.
Given back: 10 to 50 µM

Asked: Consider the compound Cn1cnc(-c2cc(Cl)c(F)c(C(=O)NNS(=O)(=O)CC3CCCN(C(N)=O)C3)c2)c1 (stereo not drawn) [Compound I-215] and give its recorded IC50.
Given back: < 10 µM

Asked: Consider the compound Cn1cnc(-c2cc(Cl)c(F)c(C(=O)NNS(=O)(=O)C[C@H]3C[C@@H](NC(N)=O)C3)c2)c1 [Compound I-235] and give its recorded IC50.
Given back: < 10 µM

Asked: Consider the compound Cn1cnc(-c2cc(Cl)c(F)c(C(=O)NNS(=O)(=O)c3cccnc3)c2)c1 [Compound I-301] and give its recorded IC50.
Given back: < 10 µM

Hey, just so you know, these numbers are from patent US11685732B2.
